Where these numbers come from: patent US10710986B2

Biological target: PD-1/PD-L1 (Homo sapiens (Human), UniProt Q9NZQ7)
Sequence (Q9NZQ7 19-238): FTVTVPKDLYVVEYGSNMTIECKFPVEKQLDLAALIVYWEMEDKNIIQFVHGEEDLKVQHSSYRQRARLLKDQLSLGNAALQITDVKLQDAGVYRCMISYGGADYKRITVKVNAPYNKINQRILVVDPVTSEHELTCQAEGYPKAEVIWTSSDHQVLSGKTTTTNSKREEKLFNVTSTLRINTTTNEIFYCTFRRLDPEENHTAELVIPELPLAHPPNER
Assay: PD-1/PD-L1 biochemical protein-protein interaction assay (ALPHA)
Settings: 0.3 nM His tagged PD-L1, 2.5 nM biotinylated Fc-PD-1, 60 minutes at 25° C., read-out: IC50 PD-L1-PD1
Protocol: Binding of the protein pairs is measured using a bead based Amplified Luminescent Proximity Homogeneous Assay (ALPHA) platform. […] After an assay reaction time of 60 minutes at 25° C., binding was measured with addition of 20 μg/mL ALPHA assay acceptor beads (anti-His coated) and 20 µg/mL ALPHA assay donor beads (streptavidin coated). IC50 values were calculated from the fit of the dose-response curves to a four-parameter equation.
MEASURED_PROPERTY: IC50 (nM)
Give just the numeric value; nM need not be written.

Test system PD-1/PD-L1 (Homo sapiens (Human), UniProt Q9NZQ7); read-out IC50; what value for COc1nc(-c2cccc(-c3cccc(-c4cnc(CNC[C@@H]5CCC(=O)N5)c(OC)n4)c3Cl)c2Cl)cnc1CNCC1CC(=O)NC1=O (stereo partly drawn) [compound 403] ? 0.07

Test system PD-1/PD-L1 (Homo sapiens (Human), UniProt Q9NZQ7); read-out IC50; what value for COc1nc(-c2cccc(-c3cccc(-c4cnc(CN5CCCC5(C)CO)c(OC)n4)c3Cl)c2Cl)cnc1CNC[C@@H]1CCC(=O)N1 (stereo partly drawn) [compound 453] ? 0.139

Test system PD-1/PD-L1 (Homo sapiens (Human), UniProt Q9NZQ7); read-out IC50; what value for COc1nc(-c2cccc(-c3cccc(-c4cnc(CN5CC[C@H]6CNC(=O)[C@H]65)c(OC)n4)c3Cl)c2Cl)cnc1CNC[C@@H]1CCC(=O)N1 [compound 287] ? 0.34

Test system PD-1/PD-L1 (Homo sapiens (Human), UniProt Q9NZQ7); read-out IC50; what value for OC1CN(Cc2ncc(-c3cccc(-c4cccc(-c5cnc(CN6CC(O)C6)c(Cl)n5)c4Cl)c3Cl)nc2Cl)C1 [compound 108] ? 0.474

Test system PD-1/PD-L1 (Homo sapiens (Human), UniProt Q9NZQ7); read-out IC50; what value for COc1nc(-c2cccc(-c3cccc(-c4cnc(CN[C@@H]5CCC5C)c(OC)n4)c3Cl)c2Cl)cnc1CNC[C@@H]1CCC(=O)N1 (stereo partly drawn) [compound 469] ? 0.26

Test system PD-1/PD-L1 (Homo sapiens (Human), UniProt Q9NZQ7); read-out IC50; what value for COc1nc(-c2cccc(-c3cccc(-c4cnc(CN5CC(N6CCCC6=O)C5)c(OC)n4)c3Cl)c2Cl)cnc1CNC[C@@H]1CCC(=O)N1 [compound 14] ? 0.224

====

Target: PD-1/PD-L1 (Homo sapiens (Human))
Experiment: PD-1/PD-L1 biochemical protein-protein interaction assay (ALPHA)
Details: 0.3 nM His tagged PD-L1, 2.5 nM biotinylated Fc-PD-1, 60 minutes at 25° C., read-out: IC50 PD-L1-PD1
MEASURED_PROPERTY: pIC50
Please express pIC50 as -log10 of the molar concentration.

Fill blank: measured pIC50 of the compound COc1nc(-c2cccc(-c3cccc(-c4cnc(CNC[C@H]5C[C@@](C)(O)C5)c(OC)n4)c3Cl)c2Cl)cnc1CNC[C@H]1C[C@@](C)(O)C1 is ____. 9.82

Fill blank: measured pIC50 of the compound COc1nc(-c2cccc(-c3cccc(-c4cnc(CN[C@@H]5COC[C@H]5O)c(OC)n4)c3Cl)c2Cl)cnc1CNC[C@@H]1CCC(=O)N1 is ____. 9.76

Fill blank: measured pIC50 of the compound COc1nc(-c2cccc(-c3cccc(-c4cnc(CN5CC(OC)C5)c(OC)n4)c3Cl)c2Cl)cnc1CN1CC(OC)C1 is ____. 9.76

Fill blank: measured pIC50 of the compound COc1nc(-c2cccc(-c3cccc(-c4cnc(CN[C@H]5C[C@@](C)(O)C5)c(OC)n4)c3Cl)c2Cl)cnc1CNC[C@@H]1CCC(=O)N1 is ____. 9.93

Fill blank: measured pIC50 of the compound CNC(=O)CNCc1ncc(-c2cccc(-c3cccc(-c4cnc(CNC[C@@H]5CCC(=O)N5)c(OC)n4)c3Cl)c2Cl)nc1OC is ____. 9.59

Fill blank: measured pIC50 of the compound COc1nc(-c2cccc(-c3cccc(-c4cnc(CN5CC[C@@H](C(N)=O)C5)c(OC)n4)c3Cl)c2Cl)cnc1CN1CC[C@@H](C(N)=O)C1 is ____. 9.56

Fill blank: measured pIC50 of the compound COc1nc(-c2cccc(-c3cccc(-c4cnc(CNC5CC(F)C5)c(OC)n4)c3Cl)c2Cl)cnc1CNC[C@@H]1CCC(=O)N1 (stereo partly drawn) is ____. 9.15

Fill blank: measured pIC50 of the compound COc1nc(-c2cccc(-c3cccc(-c4cnc(CN5CC(N6CC(O)C6)C5)c(OC)n4)c3Cl)c2Cl)cnc1CNC[C@@H]1CCC(=O)N1 is ____. 9.86

Fill blank: measured pIC50 of the compound COc1nc(-c2cccc(-c3cccc(-c4cnc(C5=NCCN5)c(OC)n4)c3Cl)c2Cl)ccc1CNC[C@@H]1CCC(=O)N1 is ____. 10.19

Fill blank: measured pIC50 of the compound COc1nc(-c2cccc(-c3cccc(-c4cnc(C5=NCC(C)(C)N5)c(OC)n4)c3Cl)c2Cl)cnc1C1=NCC(C)(C)N1 is ____. 10.19

Fill blank: measured pIC50 of the compound COc1nc(-c2cccc(-c3cccc(-c4cnc(CN(C)C[C@@H]5CCC(=O)N5)c(OC)n4)c3Cl)c2Cl)cnc1CN(C)C[C@@H]1CCC(=O)N1 is ____. 9.62

Fill blank: measured pIC50 of the compound COc1nc(-c2cccc(-c3cccc(-c4cnc(CN5CC6(CNC(=O)C6)C5)c(OC)n4)c3Cl)c2Cl)cnc1CN is ____. 9.86
